Provenance of the data: ChEMBL document CHEMBL1156829

Measurement Notes: NOVARTIS: Cytotoxicity against human hepatocellular carcinoma cell line (Huh7)
Assay type: toxicity, cell-based, Huh-7
Test Conditions: Huh7 cells (hepatocellular carcinoma cell line)
Endpoint: CC50

# annotated cases, reported CC50 shown
INSERT INTO measurements (test_smiles, endpoint_value) VALUES
  ('CCCn1c(-c2cccc(Br)c2)nc2ccccc21', '> 10 µM'),
  ('CC(C)COc1ccc(C(=O)N/C(=C/c2ccccc2)C(N)=O)cc1', '> 10 µM'),
  ('CC[C@@H](C(=O)[C@@H](C)[C@@H](O)[C@H](C)CCc1ccc(C)c(O)c1C(=O)O)[C@H]1O[C@](CC)([C@H]2CC[C@](O)(CC)[C@@H](C)O2)C[C@@H]1C', '> 10 µM'),
  ('COC(=O)c1ccc(Cn2cc(C=O)c3ccccc32)o1', '> 10 µM');

Field: next molecule
Just so you know, measured CC50 for CCC(=O)NCc1nc2ccccc2n1Cc1ccc(C)cc1 came out at > 100 µM

* * *

Measurement Notes: NOVARTIS: Cytotoxicity against human hepatocellular carcinoma cell line (Huh7)
Format: toxicity, cell-based, Huh-7
Test Conditions: Huh7 cells (hepatocellular carcinoma cell line)
Measured CC50 of individual entries

# annotated cases, reported CC50 shown
INSERT INTO assay_data (molecule, endpoint_value) VALUES
  ('COCCNC(=O)c1ccc(NCCc2ccc(Cl)cc2)c(S(=O)(=O)Nc2cccc(C(F)(F)F)c2)c1', '> 100 µM'),
  ('CC(=O)Oc1ccc(C(=O)C(C(C)=O)c2ccccc2)c(OC(C)=O)c1 (stereo not given)', '> 10 µM'),
  ('COc1ccc(OC)c(-c2ccc(O)c(CNCCc3ccc(F)cc3)c2)c1', '> 10 µM'),
  ('CCOC(=O)c1cnn(-c2ccnc3cc(Cl)ccc23)c1CNC(C)c1cccs1 (stereo not given)', '> 10 µM'),
  ('COc1ccc(-c2nc3ccccc3n2C2CCN(Cc3ccc(C)o3)CC2)cc1OC', '> 10 µM');

Just so you know, measured CC50 for CCOc1ccc(CN(CCC(c2ccccc2)c2ccccc2)C(=O)Nc2ccccc2C)cc1 came out at > 10 µM

Just so you know, measured CC50 for COc1cc(C(=O)Nc2ccc3nc4n(c(=O)c3c2)CCCCC4)cc(OC)c1OC came out at > 10 µM

Just so you know, measured CC50 for CNC(=O)c1nn(C)c2c1CC(NCC1CCCCC1)CC2 (stereo not given) came out at > 100 µM

Just so you know, measured CC50 for OC(CNCc1ccccc1)Cn1c2ccc(Br)cc2c2cc(Br)ccc21 (stereo not given) came out at 9.3 µM

Just so you know, measured CC50 for CC1CN(C(=O)C(Cc2c[nH]c3ccccc23)NC(=O)C(c2ccccc2)c2ccccc2)CCN1C(=O)NCc1ccccc1 (stereo not given) came out at > 10 µM

* * *

Measurement Notes: NOVARTIS: Cytotoxicity against human hepatocellular carcinoma cell line (Huh7)
Type: toxicity, cell-based, Huh-7
Test Conditions: Huh7 cells (hepatocellular carcinoma cell line)
Endpoint: CC50

# annotated cases, reported CC50 shown
INSERT INTO results (compound, endpoint, endpoint_value) VALUES
  ('COc1ccc(/C=C2/SC(=Nc3ccccc3OC)NC2=O)cc1', 'CC50', '19.8 µM'),
  ('O=C(NCc1n[nH]c(=S)n1-c1ccc(Br)cc1)c1cccc2ccccc12', 'CC50', '> 100 µM'),
  ('Cc1ccccc1C[n+]1cc(-c2ccc(Cl)cc2)n2c1CCC2', 'CC50', '> 100 µM');

Just so you know, measured CC50 for CCn1c(=NC(=O)c2cc(=O)c3ccccc3o2)sc2c(OC)ccc(OC)c21 came out at > 10 µM

Just so you know, measured CC50 for Cc1cc2c(cc1C)-c1c(ssc1=Nc1cccc(C)c1C)C(C)(C)N2 came out at > 100 µM

Just so you know, measured CC50 for O=C(Nc1ccc(C(=O)Nc2ccc(C3=NCCCN3)cc2)cc1)Nc1ccc(C2=NCCCN2)cc1 came out at > 7.28 µM

Just so you know, measured CC50 for CCNc1ncnc2sc(C(=O)NCc3csc(C)n3)c(C)c12 came out at > 100 µM

Just so you know, measured CC50 for Brc1cc(Br)c2c(-c3ccccc3)n(-c3ccccc3)nc(-c3ccccc3)c1-2 came out at > 10 µM

* * *

Measured CC50 of individual entries
Measurement Notes: NOVARTIS: Cytotoxicity against human hepatocellular carcinoma cell line (Huh7)
Format: toxicity, cell-based, Huh-7
Test Conditions: Huh7 cells (hepatocellular carcinoma cell line)

# annotated cases, reported CC50 shown
INSERT INTO results (molecule, endpoint, endpoint_value) VALUES
  ('Cc1cccc(CCNc2cc(C)nc3nc(C)nn23)c1', 'CC50', '> 100 µM'),
  ('COc1cc(C2Nc3ccc4ccccc4c3C3=C2C(=O)CC(C)(C)C3)ccc1Oc1ccc([N+](=O)[O-])cc1C(F)(F)F (stereo not given)', 'CC50', '> 100 µM'),
  ('Cc1ccc(O)c(NC(=O)c2cnn3c(C(F)(F)F)cc(-c4ccc(F)cc4)nc23)c1', 'CC50', '> 100 µM'),
  ('COc1cc(/C=C(\C#N)c2nc3ccccc3[nH]2)ccc1OCc1ccc(C)cc1', 'CC50', '> 10 µM');

Field: next molecule
Just so you know, measured CC50 for CN(C)c1ccc(N=Cc2ccc(N3CCOCC3)cc2)cc1 came out at > 10 µM

* * *

Tested on: Plasmodium falciparum
Measurement Notes: NOVARTIS: Inhibition of Plasmodium falciparum W2 (drug-resistant) proliferation in erythrocyte-based infection assay
Format: functional, organism-based
Test Conditions: Plasmodium falciparum, W2; read-out: EC50
Endpoint: EC50 (nM)
Give the value, in units of nM, as a plain number.

# annotated cases, reported EC50 shown
INSERT INTO assay_data (compound, unit_name, endpoint_value) VALUES
  ('Cc1cc(Nc2ccc(Cl)cc2)n2nnnc2n1', 'nM', 1750),
  ('O=C(NCCC(c1ccccc1)c1ccccc1)c1cccc([N+](=O)[O-])c1', 'nM', 618),
  ('Cc1cc(Nc2ccc(Cl)c(Cl)c2)n2ncnc2n1', 'nM', 674),
  ('COc1ccc([C@@H]2Nc3ccc(C(C)=O)cc3[C@@H]3C=CC[C@@H]32)cc1[N+](=O)[O-]', 'nM', 1760),
  ('c1ccc(-c2ccnc3c2ccc2c(-c4ccccc4)ccnc23)cc1', 'nM', 430);

Just so you know, measured EC50 for COc1ccc(OC)c(-c2ccc(O)c(CN3CCCCCC3)c2)c1 came out at 87.6

Just so you know, measured EC50 for CCCCNC1=CC(=O)C(=O)c2ccccc21 came out at 324

Just so you know, measured EC50 for COc1cc(/C=C(\C#N)c2nc3ccccc3[nH]2)ccc1OCc1ccccc1F came out at 919

Just so you know, measured EC50 for COCCOC(=O)C1=C(C)NC2=C(C(=O)CC(c3ccc(OC)c(OC)c3)C2)C1c1ccc(Cl)cc1Cl (stereo unspecified) came out at 13.1

Just so you know, measured EC50 for OCCNc1nc(Nc2ccc(F)cc2)nc2ccccc12 came out at 749

Just so you know, measured EC50 for COc1ccc(NC(=O)c2cc3cc(C4(O)CCN(CC(C)(C)C)CC4)ccc3o2)cc1OC came out at 480

* * *

Measurement Notes: NOVARTIS: Cytotoxicity against human hepatocellular carcinoma cell line (Huh7)
Format: toxicity, cell-based, Huh-7
Test Conditions: Huh7 cells (hepatocellular carcinoma cell line)
Measured CC50 of individual entries

# annotated cases, reported CC50 shown
INSERT INTO measurements (molecule, endpoint_value) VALUES
  ('CCCn1c(SCC(=O)N2c3ccccc3CC2C)nc2c1c(=O)n(C)c(=O)n2C (centres undefined)', '> 10 µM'),
  ('COc1ccc(C2Nc3ccc4ccccc4c3C3=C2C(=O)CC(C)(C)C3)cc1Br (centres undefined)', '> 100 µM'),
  ('O=c1cc[nH]c2cc(N3CCCCCC3)c(F)cc12', '> 92 µM'),
  ('CC1=C(C(=O)Nc2ccc(C)cc2C)C(c2ccc([N+](=O)[O-])cc2)n2ncc(C(=O)Nc3ccc(F)cc3)c2N1 (centres undefined)', '> 100 µM'),
  ('COc1cc(C2c3[nH]c4ccccc4c3C[C@@H]3C(=O)N(CCc4ccccc4)CC(=O)N23)cc(OC)c1OC (some centres undefined)', '> 10.8 µM'),
  ('CCOC(=O)Cn1cnc2c(nnn2Cc2ccc(F)cc2)c1=O', '> 1.7 µM'),
  ('COc1ccccc1Cn1c(SCC(=O)Nc2cccc(C(F)(F)F)c2)nc2ccc(Br)cc2c1=O', '> 100 µM'),
  ('COc1ccc(C2C(C(C)=O)=C(O)C(=O)N2CCCn2ccnc2)c(OC)c1 (centres undefined)', '> 100 µM');

Field: next molecule
Just so you know, measured CC50 for COc1ccccc1CNC(=O)CCn1c(=O)[nH]c2ccccc2c1=O came out at > 10 µM
